System: HCT116
Assay: Viability after 48 hr culture with analog, crystal violet staining
Type: cell-based, human
Settings: HCT116 (mismatch repair deficient)
Readout type: Highest dose without decreased viability

INPUT: Give HCT116 Highest dose without decreased viability for the following compound: Nc1ncc2ncn([C@H]3C[C@H](O)[C@@H](CO)O3)c2n1 [2′-deoxyaminopurine]
OUTPUT: >3.3 mM

INPUT: Name the recorded Highest dose without decreased viability of COc1nc(=O)n([C@H]2C[C@H](O)[C@@H](CO)O2)cc1C [O^4-methyl-2′-deoxythymidine] , assay system HCT116.
OUTPUT: >3.3 mM

INPUT: Answer briefly: Highest dose without decreased viability recorded on HCT116 for OC[C@H]1O[C@@H](n2cnc3c(O)ncnc32)C[C@@H]1O [2′-deoxyinosine]
OUTPUT: >3.3 mM

INPUT: Consider the compound CCN(N=O)C(N)=O [ENU, ethylnitrosourea, reference compound] tested on HCT116; state its Highest dose without decreased viability.
OUTPUT: 1.1 mg/mL

The measurements presented in this section are drawn from patent US20110230433A1.
